System: K4 kissing-loop RNA reporter;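 also: bound reporter read as fluorescence of individual clusters on recovered sequencing chips by microscopy, with normalized cluster intensities fitted with a binding model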
assay_details: apparent KD of K4 kissing-loop reporter; higher = weaker reporter binding
applied_conditions: Eterna round: R107; input ligand: theophylline 20 uM
Hi, to clarify the labels: Met covers apparent KD of K4 kissing-loop reporter from 0.2 µM upward, Not met covers anything below 0.2 µM.

sequence_string	qualitative_label
AAUUCAGUGAUGUUGGAAGGCAGGCGGGAUACCAGCGGAGAAUAACGCCCUUGGCAGCCCAAAUAUCCCAAAUAGAUAAUAGUUC [Same State - Theophylline A (Freestyle 2)]	Met

# bool: apparent KD of K4 kissing-loop reporter of UCGAUAGAGAGUGAUGUUCUCGUAUCAGAUACCAGUCACGCGAGUGACCCUUGGCAGCUGAUGUACAGCUGAGAGUAGUAUUCGA [Theo A Ex t8] >= 0.2 µM
Not met

# bool: apparent KD of K4 kissing-loop reporter of AAACUCAGUGAUGUUGAGUGGGAGCGGGAUACCAGAUCGCCCAUCAUCCCUUGGCAGCCCGAGCGUCAGAAUACAUUUCAUUUGC [theeternabot_sameState_KL_Theo_A_6] >= 0.2 µM
Met

# bool: apparent KD of K4 kissing-loop reporter of UGUCAUUGGUCGGCCGCCACUUCGUAUGAAGUGAUGUUUUGUAGAUUGUGUUGAAAGGUGUGGUGAAGGACCGGGACCGAUGACU [FiskerMod 23 - Jieux - Same State - Tryptophan B] >= 0.2 µM
Met

# bool: apparent KD of K4 kissing-loop reporter of AAAAUAAACCAGUGAUGUUGGUGUCCAGAUACCAGCGAUAAAAUUCGCCCUUGGCAGCUGUGGACGUACAAAAUAAGUACGUCCU [MatMod 3 - Jieux - Same State - Theophylline A] >= 0.2 µM
Met

# bool: apparent KD of K4 kissing-loop reporter of UUGGCUGGACGGGAUACCAGCCAAAUCGUGGGCUUGGGAUGUCUAAGAGCCAGUGAUGUUGGCCCUUGGCAGCCCUCCCAGCUUG [Xerirala] >= 0.2 µM
Not met

# bool: apparent KD of K4 kissing-loop reporter of CAUACGCAUGGAGGAUAUGAGAUUUCUCAUGUCAUUUAAUAUUCUCAGUGAUGUUGAGAUUUUGGCUCAGAAGGCCAUGUGUAUG [Ex FMN B 19] >= 0.2 µM
Met

# bool: apparent KD of K4 kissing-loop reporter of CUGACGAUGACACGGUGGCCGCUGGUCGUGCGAGGACCGGUACGGCCGCCACUCGCAUGAGUGAUGUUCAUGUGUCGUCGUCGUC [#08 K4 Tryptophan A Exclusion] >= 0.2 µM
Not met

# bool: apparent KD of K4 kissing-loop reporter of ACAGUCGGCUGUGAUACCAGUCGUAUUACAACAUGUUGCAGUGAUGUUGCGAGAUAGGAUGACCCUUGGCAGCACUCAGUACGAU [Same State Theophylline B GF9] >= 0.2 µM
Not met

# bool: apparent KD of K4 kissing-loop reporter of AAGUCAUAGGCAGGAUAUGCAUAGUAAUAAGGCCAUAUAUACGUAUAGAGUGAUGUUUUGUACCAGGCAGAAGGGCUACAUCAGU [FMN B Excl V7 (+3A)] >= 0.2 µM
Met
